Test: NCI Yeast Anticancer Drug Screen. Data for the rad50 strain (AID 155);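 note: 0% = growth of vehicle-only cultures of the same strain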
Conditions: S. cerevisiae rad50 strain growth inhibition; at 50.0 µM; active compounds read high
The panel holds about 79,000 compounds, 15% with a hit somewhere; the sample as a whole holds those more often.
observed property: growth inhibition (%)
The figure you give is taken to be in %; do not add the unit.

Please review the following examples before continuing.
compound: CCOC(=O)C(C)(C(=O)OCC)C(C)Cc1cccc2ccccc12 (stereo not given)
growth inhibition [%]: -12.6
//
compound: COc1ccc2c(c1)C1(C)CCCC(C)C1=CC2=O (stereo not given)
growth inhibition [%]: 84
//
compound: CC(=O)Nc1ccc(OC(C)=O)cc1
growth inhibition [%]: 14.4
//
compound: CCCCCCCC/C=C/CCCCCCCC(=O)N(CCOC(=O)C(C)(C)C)CCOC(=O)C(C)(C)C
growth inhibition [%]: 37.5
//
compound: COC1C(OC(N)=O)C(O)C(Oc2ccc3c(O)c(NC(=O)c4ccc(O)c(CC=C(C)C)c4)c(=O)oc3c2C)OC1(C)C (stereo not given)
growth inhibition [%]: 7.2
//
compound: OC(Cc1ccc2ccccc2n1)(C(F)(F)Cl)C(F)(F)Cl
growth inhibition [%]: -39

Query: Sample C[n+]1nnn(/N=C\c2ccccc2)c1N — what was its growth inhibition?
Reply: -3.55

Query: Entry CCOC(C)=N has what growth inhibition?
Reply: 3.1

Query: State the recorded growth inhibition for this entry: COc1ccc(/C=N/Nc2nc(C)c3c(n2)Nc2ccccc2NC3=O)cc1
Reply: -15.2

Query: What does the data say about its growth inhibition? Entry: CN(C)c1ccc(/C=C(\C#N)c2ccccc2Br)cc1
Reply: 0.15

Query: Given the compound CC1(C)Cc2ccccc2C(C)(Cl)C(=O)N1 (stereo not given) , what is its reported growth inhibition?
Reply: -10.8

Query: Would you kindly share the measured growth inhibition for Cc1ccc(C(=O)OCc2ccccc2CN2CCCCC2)cc1 ?
Reply: 1.6

Query: Any idea what its growth inhibition is? The compound is CCCOc1cc2c(cc1C(C)c1ccc(OCC)c(C)c1)OCO2 (stereo not given)
Reply: -1.7

Query: I have this compound here, CC(=O)Oc1ccc(C(c2ccc(OC(C)=O)cc2)c2ccccn2)cc1 , and I need its recorded growth inhibition.
Reply: 18.3

Query: Form field: reported growth inhibition of C[n+]1c(C2(O)CCCCCCCCCCC2)sc2ccccc21
Reply: 3.8

Query: Which growth inhibition reading was recorded for the compound O=C(O)C1(NO)CCCCC1 ?
Reply: -6.9

Query: Dear colleague, I am looking for the recorded growth inhibition of the following compound: CSc1ccc(NC(=O)Nc2cc(C(C)C)ccc2C)cc1
Reply: 0.6
